This collection of values is drawn from patent US20230295324A1.

- system: T1, human OX40 on cells (CHO-K1/hu OX40) (human, UniProt P43489 29-277)
- T1 sequence (looked up): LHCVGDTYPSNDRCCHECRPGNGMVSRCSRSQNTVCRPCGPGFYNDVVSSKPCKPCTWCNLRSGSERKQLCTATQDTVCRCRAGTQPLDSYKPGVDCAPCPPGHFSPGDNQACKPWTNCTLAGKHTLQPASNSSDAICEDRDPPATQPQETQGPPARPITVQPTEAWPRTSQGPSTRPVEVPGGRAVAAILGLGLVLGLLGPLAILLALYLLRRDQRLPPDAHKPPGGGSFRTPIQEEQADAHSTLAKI
- experimentSummary: cell-based or functional assay
assayMetric: EC50, HEK293/OX40/NF-kb luciferase reporter (nM)

binder: PR002062 (antibody, human IgG1, V domains shown, no light chain; also called anti-OX40 HCAb antibody) VH: EVQLLESGGGLVQPGGSLRLSCAASGFTFSSYAMSWVRQAPGKGQEWVSAISGSGGSTFYADSVRGRFTISRDNSKNTLYLQMSSLRAEDTAVYYCANGMTGTTDVDYWGQGTLVTVSS
quantitativeReadout: 25.2
--
binder: PR002056 (antibody, human IgG1, V domains shown, no light chain; also called anti-OX40 HCAb antibody) VH: EVQLLESGGGLVQPGGSLRLSCAASGFTFSSYAMSWVRQAPGKGLEWVSAISGGGGSIFYADSVRGRFTISRDNSKNTLYLQMNSLRAEDTAVYYCANGMTGTTDVDYWGQGTLVTVSS
quantitativeReadout: 4.89
--
binder: PR002055 (antibody, human IgG1, V domains shown, no light chain; also called anti-OX40 HCAb antibody) VH: EVQLLESGGGLVQPGGSLRLSCAASGLTFSSYAMSWVRQAPGKGLEWISAISGGGGSTYYADSVRGRFTISRDNSKNTLYLQMNSLRAEDTAVYYCANGMTGSTDVDYWGQGTLVTVSS
quantitativeReadout: 4.66
